system: Fibroblast; assay: Multiplex assay against human fibroblast; assay type: toxicity, cell-based; settings: 24 h, 1 µM, compound concentration 1 uM, replicate 2
Please use Criterion met whenever Population Pyknosed Nuclei (%) is not below 5%, and Criterion not met whenever it is.

compound: CC(/C=C1\SC(=S)N(CCCC(=O)Nc2ccc(C(=O)O)c(O)c2)C1=O)=C\c1ccccc1
assay_target: Fibroblast
label_value: Criterion met
//
compound: Cc1c(Nc2ccc(S(=O)(=O)N3CCN(C)CC3)cc2F)nc2ccc(Nc3cnn(C4CC4)c3)cn2c1=O
assay_target: Fibroblast
label_value: Criterion met
//
compound: CCOc1ccn(-c2ccc(F)cc2)c(=O)c1C(=O)Nc1ccc(Oc2ccnc(N)c2Cl)c(F)c1
assay_target: Fibroblast
label_value: Criterion not met
//
compound: CCCCCNC(=N)N/N=C/c1c[nH]c2ccc(OC)cc12.O=C(O)/C=C\C(=O)O [TEGASEROD MALEATE]
assay_target: Fibroblast
label_value: Criterion met
//
compound: CC[C@@H]1C(=O)N(C)c2cnc(Nc3ccc(C(=O)NC4CCN(C)CC4)cc3OC)nc2N1C1CCCC1
assay_target: Fibroblast
label_value: Criterion not met

---

system: Fibroblast; experiment: Multiplex assay against human fibroblast; assay type: toxicity, cell-based; details: 24 h, 10 µM, compound concentration 10 uM, replicate 2
Listing: Population Tubulin-Different-Phenotype (%) of selected compounds
assay_endpoint: Population Tubulin-Different-Phenotype (%)

compound: c1ccc(-c2oc3ncnc(NC[C@@H]4CCCO4)c3c2-c2ccccc2)cc1
reading_unit: %
obs_value: 81
--
compound: Cc1c(Nc2ccc(S(=O)(=O)N3CCN(C)CC3)cc2F)nc2ccc(Nc3cnn(C4CC4)c3)cn2c1=O
reading_unit: %
obs_value: 0
--
compound: Cl.Cn1c2c(c3ccc(Cl)c(Cl)c31)C(C#N)C1(CCNCC1)NC2=O (configuration not stated)
reading_unit: %
obs_value: 42
--
compound: C=CC(=O)Nc1cc(-n2c(=O)ccc3cnc4ccc(-c5ccc(NS(C)(=O)=O)cc5)cc4c32)ccc1C
reading_unit: %
obs_value: 33
--
compound: CCCCCNC(=N)N/N=C/c1c[nH]c2ccc(OC)cc12.O=C(O)/C=C\C(=O)O [TEGASEROD MALEATE]
reading_unit: %
obs_value: 100
--
compound: N#CCNC(=O)c1ccc(-c2ccnc(Nc3ccc(N4CCOCC4)cc3)n2)cc1
reading_unit: %
obs_value: 14
--
compound: CC(Cc1ccc(O)c(O)c1)C(C)Cc1ccc(O)c(O)c1 (configuration not stated) [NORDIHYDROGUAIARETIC ACID]
reading_unit: %
obs_value: 61
--
compound: Cc1c(P(=S)(c2ccccc2)c2ccccc2)n2ccccc2[n+]1C/C=C/c1ccccc1.[Br-]
reading_unit: %
obs_value: 81
--
compound: CC(C)c1cc(Nc2nc(N3CCC[C@H](N)C3)ncc2C(N)=O)cc(C(C)C)n1
reading_unit: %
obs_value: 100
--
compound: CC[C@H](Nc1ncnc2[nH]cnc12)c1nc2cccc(F)c2c(=O)n1-c1ccccc1
reading_unit: %
obs_value: 33
--
compound: CC(C)C[C@H](NC(=O)[C@H](Cc1ccccc1)NC(=O)CNC(=O)CNC(=O)[C@@H](N)Cc1ccc(O)cc1)C(=O)O
reading_unit: %
obs_value: 15
--
compound: CCCCN(CC)c1nc(C)nc2c1c(C)cn2-c1c(C)cc(C)cc1C.Cl
reading_unit: %
obs_value: 21
--
compound: CN1C(=O)[C@@H](NC(=O)c2cc3ccccc3[nH]2)N=C(c2ccccc2)c2ccccc21 [DEVAZEPIDE]
reading_unit: %
obs_value: 51
--
compound: CCCc1cc(C)[nH]c(=O)c1CNC(=O)c1cc(-c2ccc(N3CCN(C(C)C)CC3)nc2)cc2c1cnn2C(C)C
reading_unit: %
obs_value: 100
--
compound: CN(c1cc(C(F)(F)F)nc(OCCC(=O)O)n1)c1cccc2c1CCC2
reading_unit: %
obs_value: 44
--
compound: CC(/C=C1\SC(=S)N(CCCC(=O)Nc2ccc(C(=O)O)c(O)c2)C1=O)=C\c1ccccc1
reading_unit: %
obs_value: 14
--
compound: NC(=O)c1ccc2nc(-c3ccc(C4(N)CCC4)cc3)c(-c3ccccc3)n2n1
reading_unit: %
obs_value: 0
--
compound: CCOC(=O)CCNc1cc(N2CCc3ccccc3CC2)nc(-c2ccccn2)n1
reading_unit: %
obs_value: 41
--
compound: N#Cc1cccc(C(=O)Nc2cc(-c3ccccc3)nn2-c2ccccc2)c1
reading_unit: %
obs_value: 95
--
compound: Cl.NC[C@@H]1O[C@H](C23CC4CC(CC(C4)C2)C3)Cc2c1ccc(O)c2O
reading_unit: %
obs_value: 26
--
compound: Cc1ccc(S(=O)(=O)NC2c3ccccc3Oc3ccccc32)cc1
reading_unit: %
obs_value: 43
